assayedTarget: Kras and SOS1 (biotin-tagged human Kras loaded with GDP, His-tagged human SOS1) (Homo sapiens, UniProt P01116, G12D)
Construct: made in house; host or cells: E. coli (stated for Kras only)
Sequence (P01116 1-188 isoform P01116-2 G12D): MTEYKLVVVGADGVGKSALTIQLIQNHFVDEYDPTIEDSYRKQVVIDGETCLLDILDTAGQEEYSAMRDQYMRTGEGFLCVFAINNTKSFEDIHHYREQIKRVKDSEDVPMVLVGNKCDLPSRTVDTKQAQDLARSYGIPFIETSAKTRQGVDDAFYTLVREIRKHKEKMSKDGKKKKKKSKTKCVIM
testProtocol: Protein-protein interaction inhibition between Kras and SOS1 (KrasGl2D-SOS PPI) using AlphaScreen
Type: binding
appliedConditions: AlphaScreen; biotin-tagged human Kras loaded with GDP, His-tagged human SOS1; read-out: KRAS G12D-SOS PPI IC50
pIC50: −log10 of the molar value. Starred links: 1 amine or outer side, 2 acyl side, 3 side chain; linkers in the order of their positions; H or OH if unused. Positions of bridges follow the written chain, without caps; N, C: chain ends. Non-standard residues stand in square brackets, D forms with d. Residues, ends and D or L forms follow the SMILES beside them. *: point of attachment. hPhe(3-Cl-4-CF3) = N[C@@H](CCc1ccc(C(F)(F)F)c(Cl)c1)C(=O)O; NMeMet(O2) = CN[C@@H](CCS(C)(=O)=O)C(=O)O; NMedβ3hAla = C[C@H](CC(=O)[*:2])N(C)[*:1]; X21 = O=C(CN(c1cccc(Cl)c1)[*:1])[*:2]; NMeGly(cBu) = CN[C@H](C(=O)O)C1CCC1; NMeCha = CN[C@@H](CC1CCCCC1)C(=O)O; NMeChg = CN[C@H](C(=O)O)C1CCCCC1; NMeF = CN[C@@H](Cc1ccccc1)C(=O)O; NMeD = CN[C@@H](CC(=O)O)C(=O)O; NMeL = CN[C@@H](CC(C)C)C(=O)O; NMeV = CN[C@H](C(=O)O)C(C)C; d(β3hA) = C[C@@H](N)CC(=O)O; NMeS = CN[C@@H](CO)C(=O)O; NMeA = CN[C@@H](C)C(=O)O; NMeAib = CNC(C)(C)C(=O)O; Piperidide = C1CCN(*)CC1; Ac5c = NC1(C(=O)O)CCCC1; Aze = O=C(O)[C@@H]1CCN1; CH2CMe2OH = CC(C)(O)C*; Aib = CC(C)(N)C(=O)O; Isopentyl = CC(C)CC*; NPrGly = CCCNCC(=O)O; Sar = CNCC(=O)O
Rule: pIC50 under 8 gives F, otherwise T.

Input line: I'd appreciate it if you could say whether CCCN1CC(=O)N(C)CC(=O)N(C)[C@@H](CC2CCCCC2)C(=O)N(C)CC(=O)N[C@@H](CCc2ccc(C(F)(F)F)c(Cl)c2)C(=O)N2CCC[C@H]2C(=O)NC2(CCCC2)C(=O)N(C)[C@@H](C(C)C)C(=O)N[C@H](C)CC(=O)N(C)[C@@H](CC(C)C)C(=O)N[C@@H]([C@@H](C)CC)C1=O [Compound 116] (cyclo([Ac5c][NMeV][d(β3hA)][NMeL]I[NPrGly][Sar][NMeCha][Sar][hPhe(3-Cl-4-CF3)]P)) has pIC50 at least equal to 8.
Output line: F

Input line: I'd appreciate it if you could say whether CC[C@H](C)[C@@H]1NC(=O)[C@H](CC(C)C)N(C)C(=O)C[C@@H](C)NC(=O)[C@H](CC(C)C)N(C)C(=O)C(C)(C)NC(=O)[C@H](COCC(C)(C)O)N(C)C(=O)[C@H](CCc2ccc(C(F)(F)F)c(Cl)c2)NC(=O)CN(C)C(=O)[C@H](COCCC(C)C)N(C)C(=O)CN(C)C(=O)CN(C)C1=O [Compound 1546] (cyclo([Aib][NMeL][d(β3hA)][NMeL]I[Sar][Sar][NMeS](Isopentyl)[Sar][hPhe(3-Cl-4-CF3)][NMeS](CH2CMe2OH))) has pIC50 at least equal to 8.
Output line: F

Input line: I'd appreciate it if you could say whether CC[C@H](C)[C@@H]1NC(=O)[C@H](CC(C)C)N(C)C(=O)C[C@@H](C(=O)N2CCCCC2)N(C)C(=O)[C@H](C2CCCCC2)N(C)C(=O)C2(CCCC2)NC(=O)[C@H](Cc2ccccc2)N(C)C(=O)[C@H](CCc2ccc(C(F)(F)F)c(Cl)c2)NC(=O)CN(C)C(=O)[C@H](CC2CCCCC2)N(C)C(=O)[C@@H]2CCN2C(=O)CN(C)C1=O [Compound 527] ([NMeL]I[Sar][Aze][NMeCha][Sar][hPhe(3-Cl-4-CF3)][NMeF][Ac5c][NMeChg][NMeD]-Piperidide; lactam N-11) has pIC50 at least equal to 8.
Output line: F

Input line: I'd appreciate it if you could say whether CC[C@H](C)[C@@H]1NC(=O)[C@H](C)N(C)C(=O)C[C@@H](C(=O)N2CCCCC2)N(C)C(=O)[C@H](C2CCC2)N(C)C(=O)C(C)(C)N(C)C(=O)CN(c2cccc(Cl)c2)C(=O)[C@H](CCc2ccc(C(F)(F)F)c(Cl)c2)NC(=O)CN(C)C(=O)[C@H](C2CCC2)N(C)C(=O)[C@@H]2CCN2C(=O)[C@H](C)N(C)C1=O [Compound 2146] ([NMeA]I[NMeA][Aze][NMeGly(cBu)][Sar][hPhe(3-Cl-4-CF3)][X21][NMeAib][NMeGly(cBu)][NMeD]-Piperidide; lactam N-11) has pIC50 at least equal to 8.
Output line: T

Input line: I'd appreciate it if you could say whether CC[C@H](C)[C@@H]1NC(=O)[C@H](CC(C)C)N(C)C(=O)C[C@@H](C)N(C)C(=O)[C@H](C(C)C)N(C)C(=O)C2(CCCC2)NC(=O)[C@@H]2CCCN2C(=O)[C@H](CCc2ccc(C(F)(F)F)c(Cl)c2)NC(=O)CN(C)C(=O)[C@H](Cc2ccccc2)N(C)C(=O)CN(C)C(=O)CN(C)C1=O [Compound 1604] (cyclo([Ac5c][NMeV][NMedβ3hAla][NMeL]I[Sar][Sar][NMeF][Sar][hPhe(3-Cl-4-CF3)]P)) has pIC50 at least equal to 8.
Output line: T

Input line: I'd appreciate it if you could say whether CC[C@H](C)[C@@H]1NC(=O)[C@H](CCS(C)(=O)=O)N(C)C(=O)C[C@@H](C(=O)N2CCCCC2)N(C)C(=O)[C@H](C2CCCCC2)N(C)C(=O)C2(CCCC2)NC(=O)[C@@H]2CCCN2C(=O)[C@H](CCc2ccc(C(F)(F)F)c(Cl)c2)NC(=O)CN(C)C(=O)[C@H](CC2CCCCC2)N(C)C(=O)CN(C)C(=O)CN(C)C1=O [Compound 52] ([NMeMet(O2)]I[Sar][Sar][NMeCha][Sar][hPhe(3-Cl-4-CF3)]P[Ac5c][NMeChg][NMeD]-Piperidide; lactam N-11) has pIC50 at least equal to 8.
Output line: T
